assay.explanation: Quantitative highthroughput screen to assess conditional lethalithy of NOMO1 cells grown in Human Plasma-Like Medium with dialyzed fetal bovine serum (HPLM+ds) (AID 1963878); also: nearly all actives have a fitted effect of over 35% in size
run.conditions: NOMO1 AML cells in HPLM+ds, CellTiter-Glo viability, 48 h; series mostly up to 45.8 µM
Inconclusive results are not listed. Active and inactive are the calls of the source. Calls follow the shape of the dose curve; as a rule, active = well fitted cell-killing curve with a large enough effect; inconclusive = small, poorly fitted or top-dose-only effect, or effect the other way; inactive = no such curve, though single readings can be large or run the other way.
Labels: active, inactive

{"compound": "CC[C@@H]1C=C(C)C[C@H](C)C[C@H](OC)[C@H]2O[C@@](O)(C(=O)C(=O)N3CCCC[C@@H]3C(=O)O[C@H](C(C)=C[C@@H]3CC[C@H](Cl)[C@H](OC)C3)[C@H](C)[C@@H](O)CC1=O)[C@H](C)C[C@H]2OC", "class.label": "inactive"}
{"compound": "COc1cc([C@@H]2c3cc4c(cc3[C@@H](O[C@@H]3O[C@@H]5CO[C@@H](C)O[C@@H]5[C@H](O)[C@@H]3O)[C@H]3COC(=O)[C@H]23)OCO4)cc(OC)c1O", "class.label": "active"}
{"compound": "CCOc1cc2ncc(C#N)c(Nc3ccc(F)c(Cl)c3)c2cc1NC(=O)C=CCN(C)C", "class.label": "active"}
{"compound": "CN(C)C1CCN(C(=O)c2ccc(NC(=O)Nc3nc(N4CCOCC4)nc(N4CCOCC4)n3)cc2)CC1", "class.label": "active"}
{"compound": "COC[C@H](NC(=O)c1cnc(C)s1)C(=O)N[C@@H](COC)C(=O)N[C@@H](Cc1ccccc1)C(=O)[C@@]1(C)CO1", "class.label": "active"}
{"compound": "CN1CCN(CCCN2c3ccccc3Sc3ccc(C(F)(F)F)cc32)CC1", "class.label": "active"}
{"compound": "C=CCNc1c(O)cc2c(O)c1C[C@@H](C)C[C@H](OC)[C@@H](O)[C@@H](C)C=C(C)[C@H](OC(N)=O)[C@@H](OC)C=CC=C(C)C(=O)N2", "class.label": "active"}
{"compound": "CCNc1cc(NC2CCC(O)CC2)nc(Nc2ccc3c(ccn3Cc3ccccc3)c2)n1 (stereo not drawn)", "class.label": "inactive"}
{"compound": "CC(=O)NC[C@H]1CN(c2ccc(N3CCOCC3)c(F)c2)C(=O)O1", "class.label": "inactive"}
{"compound": "O=c1ccn([C@@H]2O[C@H](CO)[C@H](O)[C@@H]2F)c(=O)[nH]1", "class.label": "inactive"}
{"compound": "O=C(C=CC=Cc1ccc2c(c1)OCO2)N1CCCCC1", "class.label": "inactive"}
{"compound": "O=C(O)CSCC(=O)NC1CCSC1=O (stereo not drawn)", "class.label": "inactive"}
{"compound": "Cc1ccc(/C=N/NC(=O)c2ccccc2Oc2ccccc2)o1", "class.label": "inactive"}
{"compound": "O=C(N[C@H](CO)[C@H](O)c1ccc([N+](=O)[O-])cc1)C(Cl)Cl", "class.label": "inactive"}
{"compound": "COc1cc2nccc(Oc3ccc(NC(=O)NC4CC4)c(Cl)c3)c2cc1C(N)=O", "class.label": "active"}
{"compound": "Cc1cn(CCN2CCN(c3ccccc3-c3cc(C#N)cc(C(=O)NCCCN4CCCC4)c3)CC2)c2ccccc12", "class.label": "active"}
{"compound": "CCC(c1ccc(O)cc1)C(CC)c1ccc(O)cc1 (stereo not drawn)", "class.label": "inactive"}
{"compound": "C[C@]12CC[C@@H]3c4ccc(O)cc4CC[C@H]3[C@H]1[C@@H](O)[C@@H](O)[C@H]2O", "class.label": "inactive"}
{"compound": "O=C(CS(=O)Cc1ccco1)NCC=CCOc1cc(CN2CCCCC2)ccn1 (stereo not drawn)", "class.label": "inactive"}
{"compound": "N[C@@H]1CONC1=O", "class.label": "inactive"}
{"compound": "Cc1nc(NC(=O)N2CCC[C@@H]2C(N)=O)sc1-c1ccnc(C(C)(C)C(F)(F)F)c1", "class.label": "active"}
{"compound": "COc1c2occc2cc2ccc(=O)oc12", "class.label": "inactive"}
{"compound": "CC(C)c1ccc2c(c1)c(SC(C)(C)C)c(CC(C)(C)C(=O)O)n2Cc1ccc(Cl)cc1", "class.label": "inactive"}
{"compound": "CC1=C(CC(=O)O)c2cc(F)ccc2C1=Cc1ccc(S(C)=O)cc1 (stereo not drawn)", "class.label": "inactive"}
{"compound": "CN1CCC(CNc2ccc3ncc(-c4cccc(OC(F)(F)F)c4)n3n2)CC1", "class.label": "active"}
{"compound": "NCCCCCC(=O)O", "class.label": "inactive"}
{"compound": "CN(C)[C@@H](CCOc1cccc2ccccc12)c1ccccc1", "class.label": "inactive"}
{"compound": "N#Cc1c(O)c2c(-c3ccc(-c4ccccc4O)cc3)csc2[nH]c1=O", "class.label": "inactive"}
{"compound": "COc1nc(-c2ccc3c(c2)OCO3)n(-c2ccc(NC(=O)CSc3ccccc3)cc2)n1", "class.label": "active"}
{"compound": "Nc1cccc(S(=O)(=O)N2CCCN(S(=O)(=O)c3ccc4c(c3)OCCO4)CC2)c1", "class.label": "inactive"}
{"compound": "COc1cccc2c1C(=O)c1c(O)c3c(c(O)c1C2=O)C[C@@](O)(C(C)=O)C[C@H]3O[C@H]1C[C@H](N)[C@H](O)[C@H](C)O1", "class.label": "active"}
{"compound": "CCC(=O)N[C@H]1CC[C@H](C(=O)N(C)c2ccc(-c3nc4ccccc4o3)cc2)C1", "class.label": "inactive"}
{"compound": "CCOC(=O)C(C)(C)Oc1ccc(Cl)cc1", "class.label": "inactive"}
{"compound": "CC(C)NC[C@@H](C(=O)N1CCN(c2ncnc3c2[C@H](C)C[C@H]3O)CC1)c1ccc(Cl)cc1", "class.label": "active"}
{"compound": "NC1CCC(N[C@@H]2C[C@H]2c2ccccc2)CC1 (stereo partly drawn)", "class.label": "inactive"}
{"compound": "COc1cc2nccc(Oc3ccc(NC(=O)Nc4ccc(F)cc4F)c(F)c3)c2cc1OC", "class.label": "inactive"}
{"compound": "Cn1cc(C[C@@H](N)C(=O)O)c2ccccc21", "class.label": "inactive"}
{"compound": "NCc1ccc(OCCCc2sc(-c3ccc4c(c3)/C(=N/Nc3nc5ccccc5s3)CCC4)nc2C(=O)O)cc1", "class.label": "inactive"}
